# Assay Target: human recombinant COX2 (hCOX2) (UniProt P35354)
# Test Protocol: LCMS-based COX2 enzymatic inhibition assay (PGE2 quantification)
# Assay type: biochemical
# Parameters: COX2 2 minutes pge2/pge2d4 area ratio Avg; other: 2 minutes; readout pge2/pge2d4 area ratio; average; COX2 2 minutes pge2/pge2d4 area ratio Avg; LLE; average LLE; COX2 2 minutes pge2 area (counts) Avg; readout pge2 area (counts); other: 2 min; "ovine COX2 (oCOX2), human recombinant COX2 (hCOX2)"
# Test Context: 2 minutes; readout pge2/pge2d4 area ratio; average; read-out: COX2 2 minutes pge2/pge2d4 area ratio Avg. IC50
Measured Endpoint: IC50 (nM)

{"columns": ["Compound String", "Assay Target", "Unit Of Measure", "Observed"],
 "data": [
  ["CS(=O)(=O)c1ccc(-c2cc(F)cc(NCc3ccoc3)n2)cc1", "human recombinant COX2 (hCOX2) (UniProt P35354)", "nM", 16.4],
  ["Cc1cc(CNc2cccc(-c3ccc(S(C)(=O)=O)cc3)n2)co1", "human recombinant COX2 (hCOX2) (UniProt P35354)", "nM", 13.3],
  ["CS(=O)(=O)c1ccc(-c2cccc(NCc3cnco3)n2)cc1", "human recombinant COX2 (hCOX2) (UniProt P35354)", "nM", 1540]
]}

P. CS(=O)(=O)c1ccc(-c2nc(NCc3cccs3)cnc2C(F)(F)F)cc1
Q. CS(=O)(=O)c1ccc(-c2ccc3c(n2)N(Cc2cccs2)C(=O)C3)cc1
R. COc1ncc(NCc2ccncc2)nc1-c1ccc(S(C)(=O)=O)cc1
S. CS(=O)(=O)c1ccc(-c2cccc(NCc3ccsc3)n2)cc1
T. CS(=O)(=O)c1ccc(-c2nc(NCc3ccoc3)ccc2F)cc1
Arrange the 5 entries by IC50 so the values rise. Provide your answer as the labels ordered per the instruction.
S, T, P, R, Q
(S: 8.42 nM, T: 22 nM, P: 48.6 nM, R: 559 nM, Q: 1160 nM)

---

# Assay Target: human recombinant COX2 (hCOX2)
# Test Protocol: LCMS-based COX2 enzymatic inhibition assay (PGE2 quantification)
# Assay type: biochemical
# Set-up: COX2 2 minutes pge2/pge2d4 area ratio Avg; other: 2 minutes; readout pge2/pge2d4 area ratio; average; COX2 2 minutes pge2/pge2d4 area ratio Avg; LLE; average LLE; COX2 2 minutes pge2 area (counts) Avg; readout pge2 area (counts); other: 2 min; "ovine COX2 (oCOX2), human recombinant COX2 (hCOX2)"
# Test Context: 2 minutes; readout pge2/pge2d4 area ratio; average; read-out: COX2 2 minutes pge2/pge2d4 area ratio Avg. IC50
# Excerpt: We have adapted a previously reported cyclooxygenase enzymatic assay utilizing LCMS quantification of PGE2 as the product of COX-1 and COX2 catalyzed conversion of arachidonic acid to evaluate the binding properties of newly synthesized ligands [Cao, 2011]. […] Using these enzymatic assays, we have evaluated>200 newly synthesized ligands against COX2 and >20 ligands against COX-1. […]
Measured Endpoint: IC50 (nM)

Consider the following illustrative entries.
{"columns": ["Compound", "Assay Target", "IC50, nM"],
 "data": [
  ["Cc1ccsc1CNc1cccc(-c2ccc(S(C)(=O)=O)cc2)n1", "human recombinant COX2 (hCOX2)", 6.36],
  ["CC(C)Oc1ncc(NCc2cccs2)nc1-c1ccc(S(C)(=O)=O)cc1", "human recombinant COX2 (hCOX2)", 45.4],
  ["CS(=O)(=O)c1ccc(-c2cnc(N)c(OCc3cccs3)n2)cc1", "human recombinant COX2 (hCOX2)", 61],
  ["CC(C)CN(C)c1cncc(-c2ccc(S(C)(=O)=O)cc2)n1", "human recombinant COX2 (hCOX2)", 3120],
  ["CS(=O)(=O)c1ccc(-n2cnc3ccc(NCc4cccs4)nc32)cc1", "human recombinant COX2 (hCOX2)", 570],
  ["CS(=O)(=O)c1ccc(-c2cncc(OCc3ccc(Cl)s3)n2)cc1", "human recombinant COX2 (hCOX2)", 6],
  ["CS(=O)(=O)c1ccc(-c2cncc(NCc3cccs3)n2)cn1", "human recombinant COX2 (hCOX2)", 213],
  ["CS(=O)(=O)c1ccc(-c2cncc(SCc3cnoc3)n2)cc1", "human recombinant COX2 (hCOX2)", 1500]
]}

A. CS(=O)(=O)c1ccc(-n2ccc3cnc(NCc4cccs4)nc32)cc1
B. CN(Cc1ccoc1)c1cccc(-c2ccc(S(C)(=O)=O)cc2)n1
Lower value for measured IC50? Options: A , B Your choice should be expressed through its label.
B

---

# Assay Target: human recombinant COX2 (hCOX2) (UniProt P35354)
# Sequence (P35354 1-604): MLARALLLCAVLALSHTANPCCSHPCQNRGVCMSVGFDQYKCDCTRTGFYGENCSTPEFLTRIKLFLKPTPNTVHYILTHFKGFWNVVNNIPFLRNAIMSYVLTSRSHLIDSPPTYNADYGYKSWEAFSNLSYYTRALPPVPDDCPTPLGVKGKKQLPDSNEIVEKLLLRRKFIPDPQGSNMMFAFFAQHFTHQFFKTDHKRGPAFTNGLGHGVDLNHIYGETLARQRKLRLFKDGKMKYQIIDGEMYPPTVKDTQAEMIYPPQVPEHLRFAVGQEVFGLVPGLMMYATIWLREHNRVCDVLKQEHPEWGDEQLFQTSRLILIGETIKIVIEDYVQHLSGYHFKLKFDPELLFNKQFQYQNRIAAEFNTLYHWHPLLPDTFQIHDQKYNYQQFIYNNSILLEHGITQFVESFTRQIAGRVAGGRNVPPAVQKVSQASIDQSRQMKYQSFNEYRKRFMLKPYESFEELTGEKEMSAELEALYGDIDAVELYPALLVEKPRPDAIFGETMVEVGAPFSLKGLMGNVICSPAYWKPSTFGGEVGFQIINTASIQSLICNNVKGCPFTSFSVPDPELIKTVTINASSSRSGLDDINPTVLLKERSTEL
# Test Protocol: LCMS-based COX2 enzymatic inhibition assay (PGE2 quantification)
# Assay type: biochemical
# Parameters: COX2 2 minutes pge2/pge2d4 area ratio Avg; other: 2 minutes; readout pge2/pge2d4 area ratio; average; COX2 2 minutes pge2/pge2d4 area ratio Avg; LLE; average LLE; COX2 2 minutes pge2 area (counts) Avg; readout pge2 area (counts); other: 2 min; "ovine COX2 (oCOX2), human recombinant COX2 (hCOX2)"
# Test Context: 2 minutes; readout pge2/pge2d4 area ratio; average; read-out: COX2 2 minutes pge2/pge2d4 area ratio Avg. IC50
pIC50: −log10 of the molar value.
Measured Endpoint: pIC50

Below, each entry is followed by its recorded pIC50 result.
{"columns": ["Molecule", "pIC50"],
 "data": [
  ["CS(=O)(=O)c1ccc(-c2cncc(NCc3ccc(F)nc3)n2)cc1", 5.87],
  ["CS(=O)(=O)c1ccc(-c2cncc(NC3CCCCC3)n2)cc1", 6.26],
  ["COc1ccc(-c2ccc(S(C)(=O)=O)nc2)nc1NCc1cccs1", 6.45],
  ["C[C@@H](Nc1cncc(-c2ccc(S(C)(=O)=O)cc2)n1)c1cccs1", 6.34],
  ["CS(=O)(=O)c1ccc(-c2cncc(OCc3ccccc3)n2)cc1", 6.35],
  ["CS(=O)(=O)c1ccc(-c2cncc(NC[C@@H]3CCCS3)n2)cc1 (single isomer, unassigned)", 6.36]
]}

A. COc1ncc(OCc2ccoc2)nc1-c1ccc(S(C)(=O)=O)cc1
B. CS(=O)(=O)c1ccc(-c2cncc(NCc3cccs3)n2)cc1
C. CS(=O)(=O)c1ccc(-c2cnc(N)c(NCc3cccs3)n2)cc1
Place the items in sequence of falling pIC50. To answer, arrange all of the labels according to the requested order.
A, B, C
(A: 7.95, B: 7.12, C: 6.37)

---

# Assay Target: human recombinant COX2 (hCOX2) (UniProt P35354)
# Sequence (P35354 1-604): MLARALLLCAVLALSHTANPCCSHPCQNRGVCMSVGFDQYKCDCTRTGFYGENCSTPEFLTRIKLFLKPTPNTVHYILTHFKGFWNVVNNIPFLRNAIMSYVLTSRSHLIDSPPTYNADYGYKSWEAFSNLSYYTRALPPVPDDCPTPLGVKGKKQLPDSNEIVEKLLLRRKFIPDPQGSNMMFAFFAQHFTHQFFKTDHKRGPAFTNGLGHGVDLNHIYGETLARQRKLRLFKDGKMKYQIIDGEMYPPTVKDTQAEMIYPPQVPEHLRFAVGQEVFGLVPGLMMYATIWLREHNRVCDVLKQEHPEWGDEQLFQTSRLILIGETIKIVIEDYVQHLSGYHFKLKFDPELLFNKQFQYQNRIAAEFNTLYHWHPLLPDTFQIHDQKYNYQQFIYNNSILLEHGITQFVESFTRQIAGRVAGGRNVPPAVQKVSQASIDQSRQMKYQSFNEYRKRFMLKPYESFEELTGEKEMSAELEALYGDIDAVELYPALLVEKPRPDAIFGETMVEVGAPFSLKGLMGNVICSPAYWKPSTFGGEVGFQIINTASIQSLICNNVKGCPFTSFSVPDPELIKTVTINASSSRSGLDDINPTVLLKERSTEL
# Test Protocol: LCMS-based COX2 enzymatic inhibition assay (PGE2 quantification)
# Assay type: biochemical
# Set-up: COX2 2 minutes pge2/pge2d4 area ratio Avg; other: 2 minutes; readout pge2/pge2d4 area ratio; average; COX2 2 minutes pge2/pge2d4 area ratio Avg; LLE; average LLE; COX2 2 minutes pge2 area (counts) Avg; readout pge2 area (counts); other: 2 min; "ovine COX2 (oCOX2), human recombinant COX2 (hCOX2)"
# Test Context: 10 minutes; readout pge2 area (counts); average LLE
Measured Endpoint: COX2 10 minutes pge2 area (counts) Avg. LLE

Below are worked cases with known answers.
{"columns": ["Compound String", "Observed"],
 "data": [
  ["CS(=O)(=O)c1ccc(-c2cncc(NC34CC5CC(CC(C5)C3)C4)n2)cc1", 2.9969],
  ["Cc1ncc(-c2ccc(S(C)(=O)=O)cc2)nc1NCc1cccs1", 5.186],
  ["CS(=O)(=O)c1ccc(-c2cncc(N3CCCCC3)n2)cc1", 3.59],
  ["C[C@H](Nc1cncc(-c2ccc(S(C)(=O)=O)cc2)n1)c1cccs1", 5.297],
  ["CC(C)CNc1cncc(-c2ccc(S(C)(=O)=O)cc2)n1", 5.429],
  ["COc1cc(-c2ccc(S(C)(=O)=O)cc2)cc(NCc2cccs2)n1", 4.182],
  ["C[C@@H](Nc1cncc(-c2ccc(S(C)(=O)=O)cc2)n1)c1cccs1", 4.808],
  ["CS(=O)(=O)c1ccc(-c2cncc(NCc3ccc(F)nc3)n2)cc1", 5.151],
  ["CS(=O)(=O)c1ccc(-c2cncc(NCc3cccs3)n2)cn1", 6.4815],
  ["CS(=O)(=O)c1ccc(-c2cncc(N3CCCC3)n2)cc1", 4.754]
]}

1. CS(=O)(=O)c1ccc(-c2cncc(NCc3ccc(F)cn3)n2)cc1
2. CS(=O)(=O)c1ccc(-c2cncc(Oc3ccc(F)cc3)n2)cc1
// which entry reports the smaller COX2 10 minutes pge2 area (counts) Avg. LLE, 1 or 2 ? Choose, then provide that item's label.
2
(2: 3.305, 1: 4.836)

1. CS(=O)(=O)c1ccc(-c2cc(C(F)(F)F)nc(Oc3ccc(F)cc3)n2)cc1
2. CS(=O)(=O)c1ccc(-c2cncc(NCc3ccco3)n2)cc1
Determine, for 1 and 2 , which has the greater value of COX2 10 minutes pge2 area (counts) Avg. LLE. I would appreciate it if you answered with the label of your choice.
2
(2: 6.397, 1: 4.116)
